biological target: EBP (Mus musculus, UniProt P70245); construct: active EBP was obtained from mouse microsomes; from tissue; assay: EBP enzymatic assay (GC/MS); type: biochemical; details: 10 μM, zymostenol 25 μM
Sequence (P70245 whole entry): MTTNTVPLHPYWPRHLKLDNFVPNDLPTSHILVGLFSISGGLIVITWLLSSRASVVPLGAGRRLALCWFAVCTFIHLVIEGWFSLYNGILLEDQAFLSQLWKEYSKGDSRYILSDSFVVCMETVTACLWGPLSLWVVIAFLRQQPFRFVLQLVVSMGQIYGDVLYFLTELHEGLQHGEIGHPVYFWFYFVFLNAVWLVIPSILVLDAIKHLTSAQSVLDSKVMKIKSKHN
measuredMetric: inhibition of EBP enzymatic activity

                               recordsmiles                         assaysystem       assayresult
0  COc1ccc(S(=O)(=O)N2CCC(N3CCC(C)CC3)CC2)cc1  EBP (Mus musculus, UniProt P70245)  clear inhibition
1  CC/C(=C(\c1ccccc1)c1ccc(OCCN(C)C)cc1)c1ccccc1  EBP (Mus musculus, UniProt P70245)  clear inhibition
2  CN1[C@@H]2CC[C@H]1C[C@@H](OC(c1ccccc1)c1ccccc1)C2  EBP (Mus musculus, UniProt P70245)  clear inhibition

###

system: EpiSC-derived OPCs; assay: High-throughput screening of 3,000 bioactive small molecules for MBP+ oligodendrocyte formation from OPCs; type: cell-based, mouse; conditions: 2 μM, 72 h
Structures can show the parent of a compound that is named as a salt.
For each entry below, report its cell viability (% relative to DMS0) value.
Give bare numbers, in %.

Some molecules with recorded cell viability (% relative to DMS0):
                                   molecule  measurementunits  assayresult
0  CCN(CC)CCCCCCCCOC(=O)c1cc(OC)c(OC)c(OC)c1.Cl [TMB-8 hydrochloride]                 %       139.42
1  FC(F)(F)c1ccc(/C=C/c2nc(COc3ccc(CCCCn4ccnn4)cc3)co2)cc1                 %       142.71
2  c1ccc(-c2ccc(C(c3ccccc3)n3ccnc3)cc2)cc1 (stereo not drawn)                 %       123.69
3  CC(C(O)c1ccc(O)cc1)N1CCC(Cc2ccccc2)CC1 (stereo not drawn) [lfenprodil Tartrate]                 %       103.79
4  Clc1ccc(C(Cn2ccnc2)OCc2csc3c(Cl)cccc23)c(Cl)c1 (stereo not drawn) [Sertaconazole nitrate]                 %       134.49
5  Clc1ccc(C(Cn2ccnc2)OCc2ccc(Sc3ccccc3)cc2)c(Cl)c1 (stereo not drawn) [Fenticonazole Nitrate]                 %       103.63

Please go through the list and note cell viability (% relative to DMS0) for each molecule.
1. Cc1cc(NC(=O)Nc2ccc(N(C)C)cc2)c2cc(F)cc(F)c2n1
2. Cc1cc(C)c(CNC(=O)c2cc(-c3ccc(CN4CCOCC4)cc3)cc3c2cnn3C2CCCC2)c(=O)[nH]1
3. C[C@]12CC[C@@H]3c4ccc(O)cc4C[C@@H](CCCCCCCCC[S+]([O-])CCCC(F)(F)C(F)(F)F)[C@H]3[C@@H]1CC[C@@H]2O (stereo partly drawn)
4. CCCCOc1ccc(OCCCN2CCOCC2)cc1 [Pramoxine HCl]
5. N=C(N)c1ccc(OCCCCCOc2ccc(C(=N)N)cc2)cc1 [Pentamidine isethionate]
6. Cc1nnc(C(=O)NC(C)(C)c2nc(C(=O)NCc3ccc(F)cc3)c(O)c(=O)n2C)o1
7. OCCOCCN1CCN(C(c2ccccc2)c2ccc(Cl)cc2)CC1 (stereo not drawn) [Hydroxyzine 2HCl]

Output:
1: 106.19; 2: 91.36; 3: 139.42; 4: 113.08; 5: 108.75; 6: 115.85; 7: 134.19

Please go through the list and note cell viability (% relative to DMS0) for each molecule.
1. Cc1cc(Nc2cc(CN3CCOCC3)c3nc(C)c(Cc4ccc(Cl)cc4F)n3n2)n[nH]1
2. Clc1ccc(CSC(Cn2ccnc2)c2ccc(Cl)cc2Cl)cc1 (stereo not drawn) [Sulconazole Nitrate]

Output:
87.93
104.84

Please go through the list and note cell viability (% relative to DMS0) for each molecule.
1. O=C(C1CCCCC1)N1CC(=O)N2CCc3ccccc3C2C1 (stereo not drawn)
2. Clc1ccc(CCC(Cn2ccnc2)Sc2c(Cl)cccc2Cl)cc1 (stereo not drawn) [Butoconazole nitrate]
3. CCc1nc(N)nc(N)c1-c1ccc(Cl)cc1

Output:
1: 109.81; 2: 122.03; 3: 91.11

Reference source: patent US20180228743A1
